Target of assay: human Mat2A (Homo sapiens, UniProt P31153)
Construct: His6 (N, cleaved yes); TEV protease cleavage site (N, cleaved yes); made in house; host or cells: E. coli BL21 STAR (DE3)
Sequence (P31153 whole entry): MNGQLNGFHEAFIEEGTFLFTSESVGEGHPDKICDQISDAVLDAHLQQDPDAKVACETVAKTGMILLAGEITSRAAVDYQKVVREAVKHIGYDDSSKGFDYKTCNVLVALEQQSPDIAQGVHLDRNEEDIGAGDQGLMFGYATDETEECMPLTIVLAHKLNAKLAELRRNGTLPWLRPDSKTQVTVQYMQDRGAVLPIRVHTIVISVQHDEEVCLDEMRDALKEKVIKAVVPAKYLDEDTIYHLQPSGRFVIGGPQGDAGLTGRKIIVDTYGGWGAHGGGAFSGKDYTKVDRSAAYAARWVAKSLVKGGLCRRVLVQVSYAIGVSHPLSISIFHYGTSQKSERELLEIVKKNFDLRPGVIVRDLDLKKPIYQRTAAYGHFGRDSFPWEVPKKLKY
Assay name: Isothermal titration calorimetry (ITC) binding to Mat2A
Method: Prior to performing ITC, proteins (approximately 1 mL volume) were dialyzed using D-Tube Dialyzers (Maxi 100–3000 μL, MWCO 6–8 kDa) (Novagen) against 1 L of buffer A for 2–4 h at 4 °C with agitation using a magnetic stirring bar. […] Protein concentrations were determined by A280 using a UV-2550 spectrophotometer. […] Data were analyzed using the MicroCal PEAQ-ITC analysis software supplied by the manufacturer using nonlinear regression with the One Set of Sites model. […]
Observable: Kd (µM)

Nc1ncnc2c1ncn2[C@@H]1O[C@H](COP(=O)(O)OP(=O)(O)OP(=O)(O)O)[C@@H](O)[C@H]1O [ATP, adenosine 5′-triphosphate] : 80

---

Target of assay: human Mat2A (Homo sapiens)
Construct: His6 (N, cleaved yes); TEV protease cleavage site (N, cleaved yes); made in house; host or cells: E. coli BL21 STAR (DE3)
Assay name: MESG EnzChek coupled phosphate detection assay (assay 1), Mat2A initial rates
Type: biochemical
Applied conditions: variable substrate ATP; nonsaturating L-Met (0.02 mM); pH 7.5, 22 °C; read-out: inhibition constant Kis (product inhibition)
pKi: −log10 of the molar value.
Observable: pKi

C[S+](CC[C@H](N)C(=O)[O-])C[C@H]1O[C@@H](n2cnc3c(N)ncnc32)[C@H](O)[C@@H]1O (stereo partly shown) : 3.21

---

Target of assay: human Mat2A (Homo sapiens, UniProt P31153)
Construct: His6 (N, cleaved yes); TEV protease cleavage site (N, cleaved yes); made in house; host or cells: E. coli BL21 STAR (DE3)
Assay name: MESG EnzChek coupled phosphate detection assay (assay 1), Mat2A initial rates
Format: biochemical
Applied conditions: variable substrate L-Met; nonsaturating ATP (0.07 mM); pH 7.5, 22 °C; read-out: inhibition constant Kis (product inhibition)
Observable: Ki (µM)

C[S+](CC[C@H](N)C(=O)[O-])C[C@H]1O[C@@H](n2cnc3c(N)ncnc32)[C@H](O)[C@@H]1O (stereo partly shown) : 250
